EC50: recorded values
target: Bombesin receptor subtype-3 (Homo sapiens, UniProt P32247); assay: Agonist activity at human BRS-3 expressed in CHOK1 cells after 1 hr by HTRF assay
Sequence (P32247 whole entry): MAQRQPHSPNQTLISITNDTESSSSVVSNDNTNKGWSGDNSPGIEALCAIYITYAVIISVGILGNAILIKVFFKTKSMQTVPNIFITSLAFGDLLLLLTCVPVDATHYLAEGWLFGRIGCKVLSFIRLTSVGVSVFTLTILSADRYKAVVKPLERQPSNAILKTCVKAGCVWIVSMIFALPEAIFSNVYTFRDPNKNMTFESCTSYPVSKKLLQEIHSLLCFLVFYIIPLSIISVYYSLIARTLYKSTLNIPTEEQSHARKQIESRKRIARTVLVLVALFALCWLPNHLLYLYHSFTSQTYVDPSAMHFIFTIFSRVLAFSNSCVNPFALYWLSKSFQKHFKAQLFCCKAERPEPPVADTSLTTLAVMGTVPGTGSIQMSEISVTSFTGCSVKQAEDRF
endpointName: EC50

>>> recordedmeasurement("CC(=O)N1Cc2ccccc2N(Cc2ccccc2)CC1C(C)C (centres undefined)")
"0.916 µM"
>>> recordedmeasurement("CC(C)(C)COc1cccc(CC(=O)N2CCNc3nc(C(F)(F)F)ccc3C2)c1")
"0.199 µM"
>>> recordedmeasurement("CC(C)Oc1cccc(CC(=O)N2CCNc3nc(C(F)(F)F)ccc3C2)c1")
"0.381 µM"
>>> recordedmeasurement("CCOc1cccc(CC(=O)N2CCNc3nc(C(F)(F)F)ccc3C2)c1")
"2.05 µM"
>>> recordedmeasurement("O=C(O)C[C@@H]1c2ccc(C(F)(F)F)nc2NCCN1C(=O)Cc1cccc(Oc2ccccc2)c1")
"0.0016 µM"
>>> recordedmeasurement("Cc1ccc(Oc2cccc(CC(=O)N3CCNc4nc(C(F)(F)F)ccc4[C@H]3CC(=O)O)c2)cn1")
"0.0017 µM"
>>> recordedmeasurement("O=C(O)C[C@@H]1c2ccc(C(F)(F)F)nc2NCCN1C(=O)Cc1cccc(Oc2ccc(F)cc2)c1")
"0.0017 µM"
>>> recordedmeasurement("O=C(O)C1c2ccc(C(F)(F)F)nc2NCCN1C(=O)Cc1cccc(Oc2ccccc2)c1 (centres undefined)")
"1.56 µM"
>>> recordedmeasurement("O=C(Cc1cccc(OC2CCCC2)c1)N1CCNc2nc(C(F)(F)F)ccc2C1")
"0.041 µM"
>>> recordedmeasurement("Cc1ccc(Oc2cccc(CC(=O)N3CCNc4nc(C(F)(F)F)ccc4C3)c2)cn1")
"0.0095 µM"
>>> recordedmeasurement("O=C(Cc1cccc(OC2CCCCC2)c1)N1CCNc2nc(C(F)(F)F)ccc2C1")
"0.0081 µM"
>>> recordedmeasurement("O=C(Cc1cccc(Oc2ccccc2)c1)N1Cc2ccc(C(F)(F)F)nc2Nc2ccccc21")
"0.025 µM"
>>> recordedmeasurement("O=C(Cc1ccc(Oc2ccccc2)cc1)N1Cc2ccc(C(F)(F)F)nc2Nc2ccccc21")
"0.368 µM"
>>> recordedmeasurement("CC(C)C1CN(Cc2ccccc2)c2ccccc2CN1C(=O)Nc1cccc(N2CCOCC2)c1 (centres undefined)")
"0.131 µM"
>>> recordedmeasurement("CC(C)COc1cccc(CC(=O)N2CCNc3nc(C(F)(F)F)ccc3[C@H]2CC(=O)O)c1")
"0.017 µM"
>>> recordedmeasurement("CC(C)(O)c1nc(-c2cccc3c2N(S(=O)(=O)c2ccc(OC(F)(F)F)cc2)Cc2ccc(C(F)(F)F)nc2N3)no1")
"0.0014 µM"
>>> recordedmeasurement("O=C(Cc1cccc(Oc2cccnc2)c1)N1CCNc2nc(C(F)(F)F)ccc2C1")
"0.156 µM"
>>> recordedmeasurement("O=C(Nc1cccc(Oc2ccccc2)c1)N1CCNc2nc(C(F)(F)F)ccc2C1")
"4.38 µM"
>>> recordedmeasurement("CCCCOc1cccc(CC(=O)N2CCNc3nc(C(F)(F)F)ccc3C2)c1")
"0.059 µM"
>>> recordedmeasurement("COc1cccc(CC(=O)N2CCNc3nc(C(F)(F)F)ccc3C2)c1")
"2.04 µM"
>>> recordedmeasurement("O=C(Cc1cccc(Oc2ccncc2)c1)N1CCNc2nc(C(F)(F)F)ccc2C1")
"0.977 µM"
>>> recordedmeasurement("O=C(Cc1cccc(Oc2ccccc2)c1)N1CCNc2nc(C(F)(F)F)ccc2C1CO (centres undefined)")
"0.012 µM"
>>> recordedmeasurement("CC(C)(C)c1ccc(CC(=O)N2Cc3ccc(C(F)(F)F)nc3Nc3ccccc32)cc1")
"0.048 µM"
>>> recordedmeasurement("CC(C)(C)c1ccc(C(=O)N2Cc3ccc(C(F)(F)F)nc3Nc3ccccc32)cc1")
"> 10 µM"
>>> recordedmeasurement("O=C(Cc1cccc(Oc2ccccc2)c1)N1CCNc2nc(C(F)(F)F)ccc2C1CCO (centres undefined)")
"0.011 µM"
>>> recordedmeasurement("CC(C)COc1cccc(CC(=O)N2CCNc3nc(C(F)(F)F)ccc3C2)c1")
"0.07 µM"
>>> recordedmeasurement("O=C(Cc1cccc(Oc2ccccc2)c1)N1CCNc2nc(C(F)(F)F)ccc2C1")
"0.0085 µM"
>>> recordedmeasurement("O=C(Cc1cccc(Oc2cccc(F)c2)c1)N1CCNc2nc(C(F)(F)F)ccc2C1")
"0.0068 µM"
>>> recordedmeasurement("Cc1ccc(Oc2cccc(CC(=O)N3CCNc4nc(C(F)(F)F)ccc4C3)c2)cc1")
"0.0013 µM"
>>> recordedmeasurement("O=C(O)CC1c2ccc(C(F)(F)F)nc2NCCN1C(=O)Cc1cccc(Oc2ccccc2)c1 (centres undefined)")
"0.013 µM"
>>> recordedmeasurement("O=C(O)C[C@H]1c2ccc(C(F)(F)F)nc2NCCN1C(=O)Cc1cccc(Oc2ccccc2)c1")
"2.07 µM"
>>> recordedmeasurement("O=C(Cc1cccc(Oc2ccc(F)cc2)c1)N1CCNc2nc(C(F)(F)F)ccc2C1")
"0.0036 µM"
>>> recordedmeasurement("O=C(Cc1cccc(Oc2ccccn2)c1)N1CCNc2nc(C(F)(F)F)ccc2C1")
"0.254 µM"
>>> recordedmeasurement("O=C(Cc1cccc(Oc2ccccc2F)c1)N1CCNc2nc(C(F)(F)F)ccc2C1")
"0.0069 µM"
